Each item that follows carries a reported pIC50.
# targetUnderTest: native receptor, mGluR5d (Rattus norvegicus, UniProt P31424)
# Sequence (P31424 21-1203): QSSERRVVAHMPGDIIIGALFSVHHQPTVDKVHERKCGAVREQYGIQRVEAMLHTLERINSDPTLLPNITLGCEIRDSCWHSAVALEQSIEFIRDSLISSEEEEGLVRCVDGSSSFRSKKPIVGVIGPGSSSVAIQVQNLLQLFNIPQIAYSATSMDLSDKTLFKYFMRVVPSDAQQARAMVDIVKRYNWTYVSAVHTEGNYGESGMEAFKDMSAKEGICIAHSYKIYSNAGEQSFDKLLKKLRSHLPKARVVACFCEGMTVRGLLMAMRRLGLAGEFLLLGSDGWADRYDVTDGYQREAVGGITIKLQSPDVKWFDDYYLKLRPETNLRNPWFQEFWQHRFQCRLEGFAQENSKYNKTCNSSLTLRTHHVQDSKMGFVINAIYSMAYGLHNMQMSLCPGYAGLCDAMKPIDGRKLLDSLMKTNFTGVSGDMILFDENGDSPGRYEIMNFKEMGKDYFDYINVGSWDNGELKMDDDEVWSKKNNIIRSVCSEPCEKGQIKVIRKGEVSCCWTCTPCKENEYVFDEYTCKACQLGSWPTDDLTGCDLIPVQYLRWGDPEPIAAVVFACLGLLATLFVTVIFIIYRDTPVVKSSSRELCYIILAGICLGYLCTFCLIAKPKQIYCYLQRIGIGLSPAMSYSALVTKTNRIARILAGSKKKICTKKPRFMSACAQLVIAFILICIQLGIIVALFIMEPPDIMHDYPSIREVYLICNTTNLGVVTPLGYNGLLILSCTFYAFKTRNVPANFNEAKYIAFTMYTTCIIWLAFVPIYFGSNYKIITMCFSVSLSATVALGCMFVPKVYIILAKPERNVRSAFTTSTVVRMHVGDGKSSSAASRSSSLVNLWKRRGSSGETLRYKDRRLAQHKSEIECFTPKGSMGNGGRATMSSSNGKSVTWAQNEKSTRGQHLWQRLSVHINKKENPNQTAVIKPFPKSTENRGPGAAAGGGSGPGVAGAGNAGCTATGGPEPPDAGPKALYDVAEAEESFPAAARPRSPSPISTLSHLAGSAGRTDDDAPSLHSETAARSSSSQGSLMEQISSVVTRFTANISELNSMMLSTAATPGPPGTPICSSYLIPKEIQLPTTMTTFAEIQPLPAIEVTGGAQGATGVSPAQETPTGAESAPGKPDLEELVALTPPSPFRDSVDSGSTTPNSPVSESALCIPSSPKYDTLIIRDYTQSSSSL
# assayText: Antagonist activity on the native receptor mGluR5d
pIC50: −log10 of the molar value.

smilesCode	pIC50
N#Cc1cccc(-c2nc(-c3ccccn3)co2)c1	7.13
N#Cc1cccc(-c2nc(-c3ccccn3)no2)c1	6.92
